Test system: HSkMC
Assay: cytotoxicity call (relative viability < 0.9)
Settings: 10 µM
Screen size: about 39,000 compounds; about 1,500 (3.8%) were called active. The entries come from a sample that favours actives as a whole.
// classify into active, inactive

# count of solved cases: 5
>  <cpd.smiles>
C[C@@H]1CN([C@@H](C)CO)C(=O)c2cc(NC(=O)Nc3cccc4ccccc34)ccc2O[C@H]1CN(C)Cc1ccc(-c2ccccc2)cc1

>  <class.assignment>
inactive

$$$$
>  <cpd.smiles>
CNC(=O)C[C@@H]1CC[C@H]2[C@@H](COC[C@@H](O)CN2C(=O)c2ccc3c(c2)OCO3)O1

>  <class.assignment>
inactive

$$$$
>  <cpd.smiles>
C[C@H](CO)N1C[C@H](C)[C@@H](CN(C)C(=O)Nc2ccc3c(c2)OCCO3)OCc2cnnn2CCCC1=O

>  <class.assignment>
inactive

$$$$
>  <cpd.smiles>
COc1ccc(NC(=O)N(C)C[C@H]2Oc3ccc(NC(=O)C4CC4)cc3C(=O)N([C@H](C)CO)C[C@H]2C)cc1

>  <class.assignment>
inactive

$$$$
>  <cpd.smiles>
C[C@H]1CN([C@@H](C)CO)C(=O)c2cc(NC(=O)Nc3cccc4ccccc34)ccc2O[C@@H]1CN(C)Cc1ccc(-c2ccccc2)cc1

>  <class.assignment>
active

$$$$

# input for lookup
Enquiry: State the result this test recorded for COc1cc(Nc2ncc3c(n2)-c2ccc(Cl)cc2C(c2c(F)cccc2OC)=NC3)ccc1C(=O)O .
Return: active

###

Tested on: HSkMC (human skeletal muscle cells)
Assay: cytotoxicity call (relative viability < 0.9)
Settings: 10 µM
Among all 39,000 compounds or so, about 1,500 (3.8%) were called active. Only a selection was taken, and actives are over-represented in it overall.
Tick one outcome: y = active, n = inactive

>  <cpd.smiles>
C[C@H](CO)N1C[C@H](C)[C@@H](CN(C)Cc2ccc(C(F)(F)F)cc2)Oc2ccc(NC(=O)C3CCCCC3)cc2CC1=O

>  <class.assignment>
n

$$$$
>  <cpd.smiles>
C[C@@H]1CN([C@H](C)CO)C(=O)Cc2cc(NC(=O)Nc3ccc(C(F)(F)F)cc3)ccc2O[C@@H]1CN(C)Cc1ccc(C(=O)O)cc1

>  <class.assignment>
n

$$$$
>  <cpd.smiles>
Cc1noc(C)c1S(=O)(=O)Nc1ccc2c(c1)C(=O)N([C@@H](C)CO)C[C@@H](C)[C@H](CN(C)C(=O)NC(C)C)O2

>  <class.assignment>
n

$$$$
>  <cpd.smiles>
C[C@H](CO)N1C[C@H](C)[C@@H](CN(C)Cc2ccc(C(F)(F)F)cc2)Oc2ccc(NC(=O)Nc3ccc(C(F)(F)F)cc3)cc2CC1=O

>  <class.assignment>
y

$$$$
>  <cpd.smiles>
C[C@H](CO)N1C[C@H](C)[C@@H](CN(C)Cc2ccncc2)Oc2c(NS(=O)(=O)c3ccccc3)cccc2C1=O

>  <class.assignment>
n

$$$$
>  <cpd.smiles>
C[C@@H](NC(=O)C[C@H]1CC[C@@H](NC(=O)CN2CCOCC2)[C@H](CO)O1)c1ccccc1

>  <class.assignment>
n

$$$$

Switching to the query record.
Enquiry: Dear all, I need the recorded test outcome for C[C@H](CO)N1C[C@H](C)[C@H](CN(C)C(=O)Cc2ccccc2)OCCCC[C@H](C)Oc2ccc(NC(=O)Nc3ccc4c(c3)OCO4)cc2C1=O , thank you.
Return: n
